Kindly supply the reported IC50 values for the records listed here.
# System Name: PARP2 (Homo sapiens (Human))
# Sequence (Q9UGN5 whole entry): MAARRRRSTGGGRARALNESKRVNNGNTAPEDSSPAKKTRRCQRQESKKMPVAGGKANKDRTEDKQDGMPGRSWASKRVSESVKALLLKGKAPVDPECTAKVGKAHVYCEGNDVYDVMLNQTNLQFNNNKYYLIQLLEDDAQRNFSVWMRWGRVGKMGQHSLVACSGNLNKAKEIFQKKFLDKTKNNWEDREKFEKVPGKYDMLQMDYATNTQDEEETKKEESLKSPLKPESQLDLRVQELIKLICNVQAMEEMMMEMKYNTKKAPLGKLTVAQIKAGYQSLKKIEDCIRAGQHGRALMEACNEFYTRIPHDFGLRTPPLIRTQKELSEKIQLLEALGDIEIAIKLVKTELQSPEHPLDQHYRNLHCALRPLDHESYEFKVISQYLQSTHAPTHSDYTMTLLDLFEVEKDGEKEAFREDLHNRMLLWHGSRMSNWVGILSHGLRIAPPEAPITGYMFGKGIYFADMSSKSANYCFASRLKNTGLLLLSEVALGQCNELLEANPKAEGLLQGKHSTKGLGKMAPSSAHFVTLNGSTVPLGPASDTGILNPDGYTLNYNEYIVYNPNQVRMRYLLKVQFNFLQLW
# Procedure Text: PARP2 enzymatic activity assay
# Assay type: biochemical
# Reported Conditions: final PARP2 […], Biotin-NAD+ 2 μM, 60 minutes
Use nM as the unit, but write only the number.

Which IC50 value belongs to CCc1nc2ncc(CN3CCN(c4ccc(C(=O)NC)nc4)[C@H]4CC[C@H]43)cc2[nH]c1=O ?
272

Which IC50 value belongs to CCc1cc2nnc(CN3CCN(c4ccc(C(=O)NC)nc4)C4CC[C@H]43)cc2[nH]c1=O (stereo partly shown) ?
105

Which IC50 value belongs to CCc1cc2nnc(CN3CCN(c4ccc(C(=O)NC)nc4)C4CC[C@@H]43)cc2[nH]c1=O (stereo partly shown) ?
77

Which IC50 value belongs to CCc1cc2ncc(CN3CCN(c4ccc(C(=O)NC)nc4)[C@@H]4CC[C@@H]43)cc2[nH]c1=O ?
46.4
